Entry source: patent US7727977B2

measured.on: kynurenine 3-hydroxylase (Rattus norvegicus)
Construct: incubating 10 μL of the homogenate with NADPH (2 mM), kynurenine (100 μM); from tissue; host or cells: rat liver (pellet of the homogenate, resuspended)
Sequence (O88867 whole entry): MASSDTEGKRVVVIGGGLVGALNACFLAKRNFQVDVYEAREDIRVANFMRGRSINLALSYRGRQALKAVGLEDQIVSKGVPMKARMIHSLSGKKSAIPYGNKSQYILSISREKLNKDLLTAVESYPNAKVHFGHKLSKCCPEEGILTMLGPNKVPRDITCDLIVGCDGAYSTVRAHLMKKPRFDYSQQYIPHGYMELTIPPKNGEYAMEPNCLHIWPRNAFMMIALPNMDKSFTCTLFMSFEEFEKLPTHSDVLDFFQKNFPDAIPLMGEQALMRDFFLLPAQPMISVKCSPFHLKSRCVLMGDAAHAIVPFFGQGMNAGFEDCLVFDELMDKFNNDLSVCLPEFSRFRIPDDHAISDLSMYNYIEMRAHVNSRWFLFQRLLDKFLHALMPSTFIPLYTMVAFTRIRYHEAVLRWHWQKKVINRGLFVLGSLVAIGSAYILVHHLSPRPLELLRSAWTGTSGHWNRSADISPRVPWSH
assay.comment: Inhibitory activity on kynurenine 3-hydroxylase in rat liver homogenate
Format: biochemical
settings: test concentration not given
Could you please mark Y for values of Remaining kynurenine 3-hydroxylase activity (% of control) below 50% and N for values at or above it?

Examples from the recorded data:
compound	measured.on	label.class
CCOC(=O)C(CC(=O)c1ccccc1)SC1CCCCC1 (centres unmarked)	kynurenine 3-hydroxylase (Rattus norvegicus)	N
O=C(CC(Sc1ccc(Cl)cc1)C(=O)O)c1ccccc1 (centres unmarked)	kynurenine 3-hydroxylase (Rattus norvegicus)	Y
O=C(CC(SCc1ccccc1)C(=O)O)c1ccccc1 (centres unmarked)	kynurenine 3-hydroxylase (Rattus norvegicus)	N

Here's the next entry for you.
IN: Record COc1ccc(C(=O)CC(SC2CCCCC2)C(=O)O)cc1 (centres unmarked) : is its Remaining kynurenine 3-hydroxylase activity (% of control) strictly below 50%?
OUT: Y

====

Test system: perfused isolated pancreases from N0 STZ diabetic rats
assay.comment: Secretion of insulin and glucagon in perfused isolated pancreases from N0 STZ diabetic rats
Format: cell-based
settings: absence of glucose, then 16.5 mM glucose; diabetic rat pancreas

compound	glucagon secretion (result in words)
COc1ccc(S(=O)(=O)Nc2nc(-c3cccc([N+](=O)[O-])c3)cs2)cc1OC [Compound k, reference compound]	stimulation
O=C(C[C@@H](Cc1ccccc1)C(=O)O)c1ccc(F)cc1 [Compound i]	stimulation
